biological target: hGLP-1R (Homo sapiens, UniProt P43220); assay: Functional cAMP activation in the presence of 0.1% casein (no HSA); assay type: cell-based; conditions: in the presence of 0.1% casein (no HSA); geometric mean; read-out: Relative cAMP EC50, hGLP-1R;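 note: intracellular cAMP rise after 30 min at 37 °C read by HTRF, normalized between buffer only (0%) and maximal control ligand (100%), four-parameter variable-slope fit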
Sequence (P43220 24-463): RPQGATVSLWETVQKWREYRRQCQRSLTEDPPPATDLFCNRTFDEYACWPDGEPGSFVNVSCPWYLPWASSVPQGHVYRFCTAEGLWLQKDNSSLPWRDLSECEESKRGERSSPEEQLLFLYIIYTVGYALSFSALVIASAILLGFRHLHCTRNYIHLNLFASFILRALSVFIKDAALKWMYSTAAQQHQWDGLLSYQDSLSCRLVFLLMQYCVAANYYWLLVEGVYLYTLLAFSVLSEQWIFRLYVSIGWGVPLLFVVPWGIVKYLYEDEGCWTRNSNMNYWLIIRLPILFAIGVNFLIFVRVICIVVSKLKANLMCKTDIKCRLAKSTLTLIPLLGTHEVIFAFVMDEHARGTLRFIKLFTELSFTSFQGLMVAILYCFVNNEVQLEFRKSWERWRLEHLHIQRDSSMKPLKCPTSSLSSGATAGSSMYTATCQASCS
Starred links: 1 amine or outer side, 2 acyl side, 3 side chain; linkers in the order of their positions; H or OH if unused. Non-standard residues stand in square brackets, D forms with d. Groups on a side chain read outwards from the residue. No end group written: not given here. *: point of attachment. C20 diacid = O=C(O)CCCCCCCCCCCCCCCCCCC(=O)*; C18 diacid = O=C(O)CCCCCCCCCCCCCCCCC(=O)*; γGlu = O=C(O)[C@H](CCC(=O)[*:2])N[*:1]; αMe4Pal = C[C@](N)(Cc1ccncc1)C(=O)O; αMeY = C[C@](N)(Cc1ccc(O)cc1)C(=O)O; 4Pal = N[C@@H](Cc1ccncc1)C(=O)O; αMeL = CC(C)C[C@](C)(N)C(=O)O; αMeS = C[C@](N)(CO)C(=O)O; Orn = NCCC[C@H](N)C(=O)O; AEEA = NCCOCCOCC(=O)O; Aib = CC(C)(N)C(=O)O

{"columns": ["SUBSTANCE", "EC50"],
 "data": [
  ["Y[Aib]QGTFTSD[4Pal][αMeS]Q[αMeL]LD[Orn]K([dE-γGlu-C18 diacid])AQ[αMe4Pal]QFIQ[αMeY]LIEGGPSSGEPPPSGGGE-NH2 [Example 1188]", "1.01 nM"],
  ["H-Y[Aib]QGTFTSDFS[Orn][αMeL]LDKK([AEEA-γGlu-C20 diacid])AQ[Aib]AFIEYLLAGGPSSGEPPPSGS-NH2 [Example 92]", "2.08 nM"],
  ["H-Y[Aib]QGTFTSDFS[Orn][αMeL]LDKK([AEEA-γGlu-C18 diacid])AQ[Aib]AFIEYLLEGG[4Pal]SSGAPPPGGS-NH2 [Example 163]", "6.5 nM"],
  ["H-Y[Aib]QGTFTSD[4Pal]S[Orn][αMeL]LD[Orn]K([γGlu-γGlu-C18 diacid])AQ[αMe4Pal]AFIEYLIAGGPSSGEPPPSGTEE-NH2 [Example 985]", "2.93 nM"],
  ["H-Y[Aib]QGTFTSD[4Pal]S[Orn][αMeL]LDKK([γGlu-γGlu-C18 diacid])AQ[αMe4Pal]AFIE[αMe4Pal]LIEGGPSSGAPPPSGS-NH2 [Example 952]", "4.85 nM"],
  ["H-Y[Aib]QGTFTSDFS[Orn][αMeL]LDKK([AEEA-γGlu-C20 diacid])AQ[Aib]AFIEYLLAGGPSSGAPPPSEG-NH2 [Example 60]", "1.93 nM"]
]}

* * *

target: hGcgR (Homo sapiens, UniProt P47871); assay: Functional cAMP activation in the presence of 0.1% casein (no HSA); assay type: cell-based; details: 0.1% casein, no HSA; geometric mean; read-out: Relative cAMP EC50, hGcgR;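 note: intracellular cAMP rise after 30 min at 37 °C, read by HTRF against a cAMP standard curve, scaled from buffer only (0%) to maximal control ligand response (100%)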
Sequence (P47871 26-477): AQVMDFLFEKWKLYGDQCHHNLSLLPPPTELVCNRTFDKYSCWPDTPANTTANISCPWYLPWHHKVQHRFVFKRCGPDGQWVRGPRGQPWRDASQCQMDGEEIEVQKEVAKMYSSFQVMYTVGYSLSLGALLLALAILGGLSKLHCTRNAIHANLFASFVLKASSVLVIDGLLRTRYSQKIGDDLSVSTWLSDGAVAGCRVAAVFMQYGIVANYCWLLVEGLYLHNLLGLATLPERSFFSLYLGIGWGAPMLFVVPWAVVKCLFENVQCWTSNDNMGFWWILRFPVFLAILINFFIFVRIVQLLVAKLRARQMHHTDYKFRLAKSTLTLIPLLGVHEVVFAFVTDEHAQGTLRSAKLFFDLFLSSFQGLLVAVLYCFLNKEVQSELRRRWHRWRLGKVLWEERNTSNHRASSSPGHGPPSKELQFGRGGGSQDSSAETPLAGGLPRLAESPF
Starred links: 1 amine or outer side, 2 acyl side, 3 side chain; linkers in the order of their positions; H or OH if unused. Non-standard residues stand in square brackets, D forms with d. Groups on a side chain read outwards from the residue. No end group written: not given here. *: point of attachment. C18 diacid = O=C(O)CCCCCCCCCCCCCCCCC(=O)*; αMePhe(2-F) = C[C@](N)(Cc1ccccc1F)C(=O)O; γGlu = O=C(O)[C@H](CCC(=O)[*:2])N[*:1]; αMe4Pal = C[C@](N)(Cc1ccncc1)C(=O)O; αMeY = C[C@](N)(Cc1ccc(O)cc1)C(=O)O; 4Pal = N[C@@H](Cc1ccncc1)C(=O)O; αMeL = CC(C)C[C@](C)(N)C(=O)O; αMeS = C[C@](N)(CO)C(=O)O; Orn = NCCC[C@H](N)C(=O)O; AEEA = NCCOCCOCC(=O)O; Aib = CC(C)(N)C(=O)O
Reported EC50 values are given for each entry in this list.

{"columns": ["SUBSTANCE", "UNIT_OF_MEASURE", "EC50"],
 "data": [
  ["Y[Aib]QGT[αMePhe(2-F)]TSD[4Pal][αMeS]I[αMeL]LD[Orn][Orn]([AEEA-γGlu-C18 diacid])AQ[αMe4Pal]EFI[dE][αMeY]LVEGGPSSGAPPPSGS-NH2 [Example 1210]", "nM", 2.25],
  ["H-Y[Aib]Q[dA]T[αMePhe(2-F)]TSD[4Pal]SI[αMeL]LD[Orn]K([AEEA-γGlu-C18 diacid])AQ[αMe4Pal]EFI[dE][αMeY]LVEGGPSSGAPPPSGS-NH2 [Example 1205]", "nM", 3.33],
  ["H-Y[Aib]QGT[αMePhe(2-F)]TSD[4Pal][αMeS]I[αMeL]LD[Orn]K([γGlu-γGlu-C18 diacid])AQ[αMe4Pal]EFI[dE][αMeY]LIEGGPSSGAPPPSGGGEEE-NH2 [Example 1219]", "nM", 1.64]
]}
